test system: MS2 coat protein; assay: apparent KD of MS2 coat protein; designed switch direction (-1 OFF switch, 1 ON switch): 1; higher = weaker reporter binding; conditions: input ligand: none
measurement_label: apparent KD of MS2 coat protein (nM)
Entry rule: numbers only, all in nM.

Readout apparent KD of MS2 coat protein for AUUAUUUAUGCAGGAUAUGAUUAACAUGAGGAUCACCCAUGUGGUGUUGUGAGUAAGGAGAGUGAUCAGAAGGGCAUUUUAUUU [JMF's solution 50] (Eterna round: R96, puzzle: Same State NG 2) , test system MS2 coat protein, was 571

For the sequence UGGCUCAGACUAGGAUAUACGUGGUCACAUGAGGAUCACCCAUGUCUCGAGCUUCGGCUCGAGGCGUAGAAGGAGUCUGAGCCA [SSNG2/6-D2] (Eterna round: R96, puzzle: Same State NG 2) , the measured apparent KD of MS2 coat protein on MS2 coat protein was 184

Bench note, MS2 coat protein: UGGUACAUGGGAGGAUAUCAUGUAGAAACAUGAGGAUCACCCAUGUAGAUGGCAGCUUUGCUGAAUGAGAAGGCCCAUGUACCU [JL SSNG1 3.58] (Eterna round: R96, puzzle: Same State NG 2) , apparent KD of MS2 coat protein reads 22.8

###

system: MS2 coat protein; assay: apparent KD of MS2 coat protein; designed switch direction (-1 OFF switch, 1 ON switch): -1; higher = weaker reporter binding; conditions: input ligand: none
Record form. Attribute: apparent KD of MS2 coat protein. Fill in for each entry.
Just the number in µM, nothing appended.

# UCUCCCUGGCAAGGAUAUCCUGUGCGGUUCCGGCUCGUGUCUGUUACAUGAGGAUCACCCAUGUGGGAGAAGGUGCCUGUGGCU [Design 92] (Eterna round: R96, puzzle: Exclusion NG 2) with MS2 coat protein: apparent KD of MS2 coat protein is 0.143

Case GCUCGACAUGAGGAUCACCCAUGUCAGGAUAUCUUUGGAGGAGGCUUGCCGAUGAUAGAGAGAAGGGACAGGUA [Eternabot (L2) Solution 70] (Eterna round: R97, puzzle: Exclusion 1) , MS2 coat protein, apparent KD of MS2 coat protein recorded as 0.0224

apparent KD of MS2 coat protein of UACAUGAGGAUCACCCAUGUUUUGUCGUGUAUGGUAUUUAUCUAGGAUAUCAAUGUAUUAAUUUAUGAGAAGGAGAAUAUUAAU [JMF's solution 44] (Eterna round: R96, puzzle: Exclusion NG 3) , assay on MS2 coat protein, is 0.0432

// assay MS2 coat protein, entry UUAUUGGUUGUGAGGAUAUCGGAUAGAUAGAUAUUCGAGAAGGCACAUGAGGAUCACCCAUGUGUGAUUGGAAA [JR_BMEx4_Sub047] (Eterna round: R97, puzzle: Brourd's mod of Exclusion 4) , apparent KD of MS2 coat protein value = 0.0279

Form: item AAAUAGUGAGGAUAUUAGUUGUACGUCAAUAGACGUAUAAGUGAGAAGGCACAUGAGGAUCACCCAUGUUCCAG [Omei Ex4 Mod of Mat's R95 mod of Omei v9] (Eterna round: R97, puzzle: Exclusion 4) ; test system MS2 coat protein; apparent KD of MS2 coat protein: 0.0222

The value of apparent KD of MS2 coat protein recorded for UUAAAGUCAGGAUAUACAUGAGGAUCACCCAUGUAAAAUUUUAAUUUAAUUUUAAGGUGUAGAAGGGACAAUUU [Ex3 #2] (Eterna round: R97, puzzle: Exclusion 3) when tested on MS2 coat protein reads 0.0311

Values from the supplement of paper PMC9170038
